Biological target: Keap1/Nrf2 (Homo sapiens) (UniProt Q16236+Q14145)
Sequence (Q14145 whole entry, looked up): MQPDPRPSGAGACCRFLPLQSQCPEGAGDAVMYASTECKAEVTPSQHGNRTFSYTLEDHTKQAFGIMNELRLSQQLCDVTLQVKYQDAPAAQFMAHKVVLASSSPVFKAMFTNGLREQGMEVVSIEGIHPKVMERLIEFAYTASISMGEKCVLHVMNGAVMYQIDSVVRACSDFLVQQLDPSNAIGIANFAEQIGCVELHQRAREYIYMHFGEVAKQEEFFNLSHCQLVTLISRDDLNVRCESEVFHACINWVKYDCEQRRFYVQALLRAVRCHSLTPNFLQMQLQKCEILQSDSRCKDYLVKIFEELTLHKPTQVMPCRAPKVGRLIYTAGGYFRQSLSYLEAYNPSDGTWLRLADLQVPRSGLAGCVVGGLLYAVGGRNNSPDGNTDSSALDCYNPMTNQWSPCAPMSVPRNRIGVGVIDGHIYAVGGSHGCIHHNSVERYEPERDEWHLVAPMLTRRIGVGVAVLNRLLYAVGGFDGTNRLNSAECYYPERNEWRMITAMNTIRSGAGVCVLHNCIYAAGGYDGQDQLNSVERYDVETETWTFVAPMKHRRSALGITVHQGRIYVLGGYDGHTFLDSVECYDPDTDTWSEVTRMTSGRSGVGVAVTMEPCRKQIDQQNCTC
Sequence (Q16236 whole entry, looked up): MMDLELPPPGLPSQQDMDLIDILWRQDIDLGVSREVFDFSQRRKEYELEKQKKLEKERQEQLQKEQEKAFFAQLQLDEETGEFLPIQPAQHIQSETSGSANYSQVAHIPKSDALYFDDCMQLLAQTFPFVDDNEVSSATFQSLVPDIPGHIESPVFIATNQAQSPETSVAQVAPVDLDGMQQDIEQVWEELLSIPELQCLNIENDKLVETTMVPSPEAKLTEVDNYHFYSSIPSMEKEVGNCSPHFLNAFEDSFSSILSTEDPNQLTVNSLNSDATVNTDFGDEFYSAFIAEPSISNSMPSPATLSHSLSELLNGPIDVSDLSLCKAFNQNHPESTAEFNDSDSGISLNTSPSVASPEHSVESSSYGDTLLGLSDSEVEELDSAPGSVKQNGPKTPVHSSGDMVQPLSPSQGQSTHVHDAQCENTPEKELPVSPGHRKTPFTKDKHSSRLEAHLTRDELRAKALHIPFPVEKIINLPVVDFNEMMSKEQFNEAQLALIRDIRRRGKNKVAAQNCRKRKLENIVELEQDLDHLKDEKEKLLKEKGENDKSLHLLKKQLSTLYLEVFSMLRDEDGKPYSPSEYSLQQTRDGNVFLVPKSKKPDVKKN
Experiment: Inhibition of Keap1-Nrf2 interaction in HEK293T cells assessed as induction of ARE-luciferase gene expression at 1 uM after 24 hrs relative to control
Format: cell-based
Details: HEK-293T
Recorded fold change (FC) values for a group of compounds are listed next.
# respond with the number and nothing more

Example compounds with recorded fold change (FC):
compound: COC(=O)C1=CC(C)(C)CC(CCCCC2CC(C)(C)C=C(C(=O)OC)C2=O)C1=O (configuration not stated)
fold change (FC): 8.23
//
compound: COC(=O)C1=CC(C)(C)CC(C)C1=O (configuration not stated)
fold change (FC): 1.17
//
compound: COC(=O)C1=CC(C)(C)CC(CC(=O)OC(C)(C)C)C1=O (configuration not stated)
fold change (FC): 0.65
//
compound: C=CCOC(=O)C1=CC(C)(C)CCC1=O
fold change (FC): 1.39
//
compound: CCCCCCC1CC2(C=C(C(=O)OC)C1=O)OCCO2 (configuration not stated)
fold change (FC): 1.4

Exam item: Can you share its fold change (FC)? I mean this compound: C#CCC1CC(C)(C)C=C(C(=O)OC)C1=O (configuration not stated)
Marked response: 1.14

Exam item: Repeat for the following compound: COC(=O)C1=CC2(CC(C)C1=O)OCCO2 (configuration not stated)
Marked response: 0.98

Exam item: Repeat for the following compound: COC(=O)C1=CC2(CC(CC3CC4(C=C(C(=O)OC)C3=O)OCCO4)C1=O)OCCO2 (configuration not stated)
Marked response: 0.94

###

Recorded fold change (FC) values for a group of compounds are listed next.
Target: Keap1/Nrf2 (Homo sapiens) (UniProt Q16236+Q14145)
Test: Inhibition of Keap1-Nrf2 interaction in HEK293T cells assessed as induction of ARE-luciferase gene expression at 1 uM after 24 hrs relative to control
Assay type: cell-based
Conditions: HEK-293T
# respond with the number and nothing more

compound: CC1(C)C=C(C(=O)O)C(=O)CC1
target: Keap1/Nrf2 (Homo sapiens) (UniProt Q16236+Q14145)
metricName: fold change (FC)
valueMeasured: 2

compound: CC1(C)C=C(COC(=O)C2=CC(C)(C)CCC2=O)C(=O)CC1
target: Keap1/Nrf2 (Homo sapiens) (UniProt Q16236+Q14145)
metricName: fold change (FC)
valueMeasured: 2.02

Turning to the following compound.
Exam item: Can you share its fold change (FC)? I mean this compound: COC(=O)C1=CC2(CC(CCCC3CC4(C=C(C(=O)OC)C3=O)OCCO4)C1=O)OCCO2 (stereo not drawn)
Marked response: 1

###

Molecular target: Keap1/Nrf2 (Homo sapiens) (UniProt Q16236+Q14145)
Assay: Inhibition of Keap1-Nrf2 interaction in HEK293T cells assessed as induction of ARE-luciferase gene expression at 20 uM after 24 hrs relative to control
Format: cell-based
Conditions: HEK-293T
Criterion: fold change (FC) meeting or surpassing 2. Met: T. Not met: F.

Recorded results for 10 molecules are shown here.
molecule: COC(=O)C1=CC(C)(C)CC(CC#N)C1=O (stereo unspecified)
groupLabel: T
--
molecule: COC(=O)C1=CC(C)(C)C=CC1=O
groupLabel: T
--
molecule: CC1(C)C=C(COC(=O)C2CC(C)(C)CCC2=O)C(=O)CC1 (stereo unspecified)
groupLabel: T
--
molecule: C#CCC1CC(C)(C)C=C(C(=O)OC)C1=O (stereo unspecified)
groupLabel: F
--
molecule: COC(=O)C1=CC(C)(C)CC(CCCC2CC(C)(C)C=C(C(=O)OC)C2=O)C1=O (stereo unspecified)
groupLabel: T
--
molecule: COC(=O)C1=CC(C)(C)CC(C)C1=O (stereo unspecified)
groupLabel: T
--
molecule: C=CCOC(=O)C1=CC(C)(C)CCC1=O
groupLabel: T
--
molecule: CC1(C)C=C(COC(=O)C2=CC(C)(C)CCC2=O)C(=O)CC1
groupLabel: T
--
molecule: COC(=O)CCC1CC(C)(C)C=C(C(=O)OC)C1=O (stereo unspecified)
groupLabel: F
--
molecule: COC(=O)C1=CC(C)(C)CC(CC(F)(F)F)C1=O (stereo unspecified)
groupLabel: F

Exam item: # bool: fold change (FC) of CC1(C)C=C(CO)C(=O)CC1 >= 2
Marked response: F

Exam item: Repeat for the following molecule: COC(=O)C1=CC(C)(C)CCC1=O
Marked response: T

Exam item: Repeat for the following molecule: CCCCCCC1CC2(C=C(C(=O)OC)C1=O)OCCO2 (stereo unspecified)
Marked response: T

Exam item: Repeat for the following molecule: CC1(C)C=C(I)C(=O)CC1
Marked response: F

###

Target: Keap1/Nrf2 (Homo sapiens) (UniProt Q16236+Q14145)
Test: Inhibition of Keap1-Nrf2 interaction in HEK293T cells assessed as induction of ARE-luciferase gene expression at 1 uM after 24 hrs relative to control
Format: cell-based
Details: HEK-293T
metricName: fold change (FC)

Example molecules with recorded fold change (FC):
molecule: CC1(C)C=C(COC(=O)C2CC(C)(C)CCC2=O)C(=O)CC1 (centres undefined)
target: Keap1/Nrf2 (Homo sapiens) (UniProt Q16236+Q14145)
fold change (FC): 2.98
//
molecule: C=CCC1CC(C)(C)C=C(C(=O)OC)C1=O (centres undefined)
target: Keap1/Nrf2 (Homo sapiens) (UniProt Q16236+Q14145)
fold change (FC): 1.34
//
molecule: COC(=O)C1=CC(C)(C)CCC1O (centres undefined)
target: Keap1/Nrf2 (Homo sapiens) (UniProt Q16236+Q14145)
fold change (FC): 1

Exam item: Can you share its fold change (FC)? I mean this molecule: COC(=O)C1(C)CC(C)(C)C=CC1=O (centres undefined)
Marked response: 1.47
